Each recorded value in this set is attributed to patent US6794396B2.

Molecular target: CETP (Homo sapiens, UniProt P11597)
Construct: made in house; host or cells: CHO cells (serum-free conditioned medium)
Experiment: CETP activity in vitro: transfer of [3H]CE from HDL donor to LDL acceptor particles
Type: biochemical
Settings: Table 7, compounds of formula T-7; read-out: IC50
METRIC: IC50 (µM)

[
  {
    "MOLECULE": "COC(=O)c1c(C(F)F)nc(C(F)(F)F)c(SCc2c(F)c(F)c(F)c(F)c2F)c1CC(C)C [Compound 244]",
    "VALUE UNITS": "µM",
    "IC50": 50
  }
]

(I) COC(=O)c1c(C(F)F)nc(C(F)(F)F)c(SCc2ccccn2)c1CC(C)C [Compound 233]
(II) COC(=O)c1c(C(F)F)nc(C(F)(F)F)c(SCc2ccc(OCc3ccccc3)cc2)c1CC(C)C [Compound 224]
(III) COC(=O)c1c(C(F)F)nc(C(F)(F)F)c(SCc2ccc(-c3ccccc3)cc2)c1CC(C)C [Compound 225]
IN: List the 3 entries from lowest IC50 to highest IC50 value. Please list each label once, in the requested order.
OUT: III, II, I
(III: 10 µM, II: 25 µM, I: 60 µM)

###

Molecular target: CETP (Homo sapiens)
Construct: made in house; host or cells: CHO cells (serum-free conditioned medium)
Sequence (P11597 18-493): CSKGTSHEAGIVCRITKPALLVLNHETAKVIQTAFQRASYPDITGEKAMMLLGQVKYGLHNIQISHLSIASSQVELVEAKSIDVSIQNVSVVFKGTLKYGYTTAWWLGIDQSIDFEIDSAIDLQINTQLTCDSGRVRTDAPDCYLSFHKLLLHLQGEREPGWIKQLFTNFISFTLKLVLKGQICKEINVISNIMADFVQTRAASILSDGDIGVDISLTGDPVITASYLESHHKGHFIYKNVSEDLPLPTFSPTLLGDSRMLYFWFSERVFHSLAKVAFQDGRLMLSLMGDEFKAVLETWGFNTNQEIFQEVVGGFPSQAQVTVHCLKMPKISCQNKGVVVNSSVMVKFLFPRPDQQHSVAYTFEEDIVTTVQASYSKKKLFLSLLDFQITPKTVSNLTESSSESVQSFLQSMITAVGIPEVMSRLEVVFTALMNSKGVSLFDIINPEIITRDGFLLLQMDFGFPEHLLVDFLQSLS
Test: CETP activity in vitro: transfer of [3H]CE from HDL donor to LDL acceptor particles
Assay type: biochemical
Conditions: IC50, Table 8
METRIC: IC50

IN: Entry C=CC(O)c1c(C(F)F)nc(C(F)(F)F)c(C(=O)OC)c1CC(C)C (stereo not shown) [Compound 295] has what IC50?
OUT: > 100 µM

###

Target: CETP (Homo sapiens, UniProt P11597)
Construct: made in house; host or cells: CHO cells (serum-free conditioned medium)
Experiment: CETP activity in vitro: transfer of [3H]CE from HDL donor to LDL acceptor particles
Assay type: biochemical
Settings: 50% inhibition of [3H]CE transfer from HDL to LDL, 2 hours at 37° C.; read-out: IC50(μm)
pIC50: −log10 of the molar value.
METRIC: pIC50

[
  {
    "MOLECULE": "CCOC(=O)c1c(C(F)(F)F)nc(C(F)(F)F)c(C)c1OC(C)C [Compound 53]",
    "pIC50": 4.30
  },
  {
    "MOLECULE": "COC(=O)c1c(C(F)F)nc(C(F)(F)F)c(C(=O)OC)c1Cc1ccnc(SC)n1 [Compound 67]",
    "pIC50": 4.22
  },
  {
    "MOLECULE": "COC(=O)c1c(C(F)F)nc(C(F)(F)F)c(C(=O)Sc2ccc(C(C)C)cc2Cc2ccc(F)cc2)c1CC(C)C [Compound 160]",
    "pIC50": 4.22
  },
  {
    "MOLECULE": "CCOP(=O)(OCC)C(=O)c1c(C(F)(F)F)nc(C(F)F)c(C(=O)OC)c1NC(C)C [Compound 85]",
    "pIC50": 4.05
  },
  {
    "MOLECULE": "COC(=O)c1c(C(F)F)nc(C(F)(F)F)c(C(=O)Oc2ccc(C(C)(C)C)cc2C(C)(C)C)c1CC(C)C [Compound 168]",
    "pIC50": 4.22
  }
]

(P) COC(=O)c1c(C(F)(F)F)ncc(C(=O)c2cnc(C(F)(F)F)c(C(=O)OC)c2OC(C)C)c1OC(C)C [Compound 54]
(Q) COC(=O)c1c(C(F)F)nc(C(F)(F)F)c(C(=O)Sc2ccc(C(C)(C)C)cc2)c1CC(C)C [Compound 156]
IN: Please indicate which item has the smaller measured pIC50: P versus Q Indicate which entry you chose by stating its label.
OUT: Q
(Q: 4.00, P: 4.30)

(1) CCOC(=O)c1c(C(F)(F)F)nc(C(F)(F)F)c(C#N)c1OCC [Compound 64]
(2) COC(=O)c1c(C(F)F)nc(C(F)(F)F)c(CSc2ccc(C(C)(C)C)cc2)c1CC(C)C [Compound 3]
IN: Please indicate which item has the smaller measured pIC50: 1 versus 2 Indicate which entry you chose by stating its label.
OUT: 1

(1) COC(=O)c1c(C(F)F)nc(C(F)(F)F)c(C(=O)Oc2cc(OC)c(OC)c(OC)c2Cc2ccc(F)cc2)c1CC(C)C [Compound 171]
(2) CCOC(=O)c1c(Sc2ccccc2)cc(C(F)(F)F)nc1C(F)(F)F [Compound 23]
IN: Could you point out whether the larger pIC50 belongs to 1 or to 2 ? Indicate which entry you chose by stating its label.
OUT: 2
(2: 4.40, 1: 4.15)

###

Biological target: CETP (Homo sapiens)
Construct: made in house; host or cells: CHO cells (serum-free conditioned medium)
Assay: CETP activity in vitro: transfer of [3H]CE from HDL donor to LDL acceptor particles
Format: biochemical
Conditions: IC50, Table 6, compounds of formula T-6
METRIC: IC50 (µM)
The response must be a number in µM with no trailing unit.

The examples below pair each entry with its known result.
[
  {
    "COMPOUND": "COC(=O)c1c(C(F)F)nc(C(F)(F)F)c(CSc2ccc([N+](=O)[O-])cc2)c1CC(C)C [Compound 198]",
    "SUBJECT OF TEST": "CETP (Homo sapiens)",
    "EXPERIMENTAL VALUE": 7
  },
  {
    "COMPOUND": "COC(=O)c1c(C(F)F)nc(C(F)(F)F)c(CSc2ccc(Cl)cc2)c1CC(C)C [Compound 185]",
    "SUBJECT OF TEST": "CETP (Homo sapiens)",
    "EXPERIMENTAL VALUE": 10
  }
]

IN: Entry COC(=O)c1c(C(F)F)nc(C(F)(F)F)c(CSc2ccc(OC(F)(F)F)cc2)c1CC(C)C [Compound 191] has what IC50?
OUT: 10

###

Molecular target: CETP (Homo sapiens)
Construct: made in house; host or cells: CHO cells (serum-free conditioned medium)
Test: CETP activity in vitro: transfer of [3H]CE from HDL donor to LDL acceptor particles
Format: biochemical
Conditions: Table 5, compounds of formula T-5; read-out: IC50
METRIC: IC50 (nM)

(A) COC(=O)c1c(C(F)F)nc(C(F)(F)F)c(CSc2c(C(F)(F)F)nc(C(F)F)c(C(=O)OC)c2CC(C)C)c1CC(C)C
(B) COC(=O)c1c(C(F)F)nc(C(F)(F)F)c(SSc2ccc(C(C)(C)C)cc2)c1CC(C)C
(C) COC(=O)c1c(C(F)F)nc(C(F)(F)F)c(SSc2c(C(F)(F)F)nc(C(F)F)c(C(=O)OC)c2CC(C)C)c1CC(C)C
IN: Order the 3 listed items from lowest to highest according to IC50. Please list each label once, in the requested order.
OUT: B, C, A

###

Target: CETP (Homo sapiens)
Construct: made in house; host or cells: CHO cells (serum-free conditioned medium)
Assay: CETP activity in vitro: transfer of [3H]CE from HDL donor to LDL acceptor particles
Assay type: biochemical
Conditions: IC50(μm), 50% inhibition of [3H]CE transfer from HDL to LDL, 2 hours at 37° C.
METRIC: IC50 (µM)
The response must be a number in µM with no trailing unit.

The examples below pair each entry with its known result.
[
  {
    "COMPOUND": "COC(=O)c1c(C(F)F)nc(C(F)(F)F)c(N=S=O)c1CC(C)C [Compound 1]",
    "SUBJECT OF TEST": "CETP (Homo sapiens)",
    "EXPERIMENTAL VALUE": 2
  },
  {
    "COMPOUND": "COC=C(Br)c1c(C(F)(F)F)nc(C(F)F)c(C(=O)OC)c1CC1CC1 [Compound 35]",
    "SUBJECT OF TEST": "CETP (Homo sapiens)",
    "EXPERIMENTAL VALUE": 45
  },
  {
    "COMPOUND": "COC(=O)c1c(C(F)F)nc(C(F)(F)F)c(C(=O)Sc2c(Cl)cccc2Cl)c1CC(C)C [Compound 164]",
    "SUBJECT OF TEST": "CETP (Homo sapiens)",
    "EXPERIMENTAL VALUE": 50
  },
  {
    "COMPOUND": "COC(=O)c1c(C(F)F)nc(C(F)(F)F)c(C(=O)Sc2cc(Cl)ccc2Cl)c1CC(C)C [Compound 163]",
    "SUBJECT OF TEST": "CETP (Homo sapiens)",
    "EXPERIMENTAL VALUE": 65
  },
  {
    "COMPOUND": "CCSc1c(C(F)(F)F)nc(C(F)F)c(C(=O)OC)c1C1CCC1 [Compound 66]",
    "SUBJECT OF TEST": "CETP (Homo sapiens)",
    "EXPERIMENTAL VALUE": 60
  },
  {
    "COMPOUND": "COC(=O)c1c(C(F)F)nc(C(F)(F)F)c(SCSC)c1CC(C)C [Compound 33]",
    "SUBJECT OF TEST": "CETP (Homo sapiens)",
    "EXPERIMENTAL VALUE": 45
  },
  {
    "COMPOUND": "CCSC(C)c1c(C(F)(F)F)nc(C(F)F)c(C(=O)OC)c1CC1CC1 (centres unmarked) [Compound 21]",
    "SUBJECT OF TEST": "CETP (Homo sapiens)",
    "EXPERIMENTAL VALUE": 40
  }
]

# context switch: different compound, same IC50
IN: Entry COC(=O)c1c(C(F)F)nc(C(F)(F)F)c(C(=O)Sc2cc(C(C)(C)C)cc(C(C)(C)C)c2)c1CC(C)C [Compound 151] has what IC50?
OUT: 60
